Just for reference, PubChem BioAssay AID624416 is where these values come from.

# System: HIV-1 gp120 / PG9 antibody interaction
# TEST_DESCRIPTION: binders of HIV-1 gp120 antibody PG9, primary screen, biochemical, TR-FRET (AID 624416)
# APPLIED_CONDITIONS: TR-FRET gp120-PG9 antibody binding; at 6.7 µM
The campaign covered roughly 360,000 compounds. About 1,500 (0.42%) were called active. Rule as the data show it: active = inhibition above about 8.5%; inactive = the rest. For the sample, actives were picked, then their nearest neighbours and some compounds at random.
Classes used: label 1 for active, label 0 for inactive

* C[C@@H]1CN([C@H](C)CO)C(=O)CCCn2cc(nn2)CO[C@H]1CN(C)C(=O)Nc1ccc(N2CCCCC2)cc1 | label 0
* CC(C)OCCCNC(=O)c1cc(Sc2ccc(F)cc2)nc2ccccc12 | label 1
* CC(C)CCNC(=O)c1cccnc1Sc1ccccc1 | label 0
* Cc1cc(Br)cn2c(Cc3ccccc3C(F)(F)F)c(-c3ccc(C#N)cc3)nc12 | label 0
* Cc1nc(NC(=O)C(C)(C)C)sc1[N+](=O)[O-] | label 0
* Nc1ncnc2c1ncn2C1OC(CO)CC1O (centres undefined) | label 0
* O=C(NCc1ccccc1)[C@H]1CCCN1C(=O)[C@H]1CCCN1C(=O)N1CCOCC1 | label 0
* CSc1ccc(Oc2cccc3c2S(=O)(=O)N([C@H](C)c2ccccc2)C[C@@H](COCc2ccccc2)O3)cc1C | label 0
* CC(C)(C)n1nc(C2CC2)c(Br)c1NC(=O)c1ccccc1F | label 0
* COC(=O)[C@]1(Cc2ccccc2)NC=C(C(=O)c2ccccc2)[C@@H]1c1cccc(OC)c1 | label 0
* C#CCN([C@@H](C)C(=O)OCC)S(=O)(=O)c1ccc(Br)cc1F | label 0
* O=S1(=O)c2c(cccc2N2CCCC2)O[C@H](COCc2ccccc2)CN1C1CC1 | label 0
* COc1cccc(CNC(=O)[C@H]2CCCN2C(=O)[C@H]2CCCN2C(=O)c2ccc(F)cc2)c1 | label 0
* COc1ccc(S(=O)(=O)Nc2ccc3c(c2)C(=O)N([C@H](C)CO)C[C@H](C)[C@@H](CN(C)C)OCCCC[C@H](C)O3)cc1 | label 0
* COc1ccc(-n2nnnc2SCC(=O)NCc2cccs2)cc1 | label 0
* FC(F)(F)c1nc(-c2ccccc2)ncc1-c1nnnn1-c1ccccc1 | label 0
* COC(=O)c1cc2c(c3c4cc(F)ccc4n(S(=O)(=O)c4ccccc4)c13)C(=O)N(Cc1ccccc1OC)C2 | label 0
* Nc1nc2c(ncn2[C@@H]2O[C@H](C(=O)N[C@H](Cc3ccccc3)C(=O)NCC3CCCCC3)[C@@H](O)[C@H]2O)c(=O)[nH]1 | label 0
* Nc1ncnc2c1ncn2[C@@H]1O[C@H](C(=O)N[C@@H](CCc2ccccc2)C(=O)NCC(=O)N2CCOCC2)[C@@H](O)[C@H]1O | label 0

* * *

# Tested on: HIV-1 gp120 / PG9 antibody interaction
# TEST_DESCRIPTION: binders of HIV-1 gp120 antibody PG9, primary screen, biochemical, TR-FRET (AID 624416)
# APPLIED_CONDITIONS: TR-FRET gp120-PG9 antibody binding; at 6.7 µM; active compounds read high
The whole screen tested about 360,000 compounds, of which about 1,500 (0.42%) were called active. Shown is part of a subset that was picked to be rich in actives.
PROPERTY_LABEL: inhibition (%)

- Cc1ccc2nc(CN(C)C(=O)[C@@H](Cc3ccccc3)NC(=O)[C@H]3O[C@@H](n4ccc(=O)[nH]c4=O)[C@H](O)[C@@H]3O)[nH]c2c1: -1.8
- COC(=O)[C@]12C[C@H](CC(=O)NCCC(C)C)C(=O)N(CCc3ccc(OC)c(OC)c3)C1=C[C@H](C(C)(C)C)O[C@@H]2C: 0.69
- COCc1cc(C)nc(SCC(=O)Nc2cccc(C)c2)c1C#N: -0.32
- Cc1nc2cc(NC(=O)CSc3nc4c(C)cccc4cc3C#N)ccc2s1: 16
- O=C(COC(=O)Cn1cnc2ccccc21)Nc1cccc2c1C(=O)c1ccccc1C2=O: -1.23
- CCOC(=O)C1CSCCS(=O)(=O)N1Cc1ccc(Cl)cc1 (stereo not given): -1.82
- O=C1[C@@H](c2ccccc2)[C@@H](c2ccccc2)N1c1ccccc1: -1.27
- O=C(COC(=O)c1cccc(Br)c1)Nc1cccc2c1C(=O)c1ccccc1C2=O: 12
- COCCCNC(=O)C[C@H]1C[C@@]2(C(=O)OC)C(=C[C@H](C(C)(C)C)O[C@@H]2C)N(Cc2ccc3c(c2)OCO3)C1=O: 0.35
- O=S1(=O)c2ccc(Br)cc2-n2nncc2CN1Cc1cccc(Cl)c1: 1.6
- O=C1COc2ccc(C(=O)COC(=O)c3cccnc3Cl)cc2N1: -1.31
- CC(C)N(c1ccccc1)c1ncnc(NCCC(=O)O)c1[N+](=O)[O-]: -1.67
- COC(=O)[C@]12C[C@H](CC(=O)NCCCCc3ccccc3)C(=O)N(Cc3ccc4c(c3)OCO4)C1=C[C@H](C(C)(C)C)O[C@@H]2C: 1.2
- OC(c1nnc(-c2ccccc2)o1)c1cccs1 (stereo not given): -1.12
- COc1cc(OC)cc(C(=O)NCCSCc2ccc(Cl)cc2)c1: -1.65
- O=C(Nc1c(Cl)c(C2CC2)nn1-c1ccccc1)C(Cl)(Cl)Cl: 0.67
- COc1cccc(-c2cc(CNC(=O)[C@@H](Cc3ccccc3)NC(=O)[C@H]3O[C@@H](n4cnc(C(N)=O)n4)[C@H](O)[C@@H]3O)no2)c1: -2.73
- COc1cccc(CNC(=O)[C@H]2CCCN2C(=O)[C@H]2CCCN2C(=O)c2cc(F)cc(F)c2)c1: -0.29
- O=C(N[C@H](Cc1ccccc1)C(=O)N1CCCN(Cc2cccs2)CC1)[C@H]1O[C@@H](n2ccc(=O)[nH]c2=O)[C@H](O)[C@@H]1O: -1.49
- COc1cccc(-c2ccc(C#N)c(SCC(=O)NCCc3ccc(Cl)cc3)n2)c1: 14.1
- COc1ccc(Cl)cc1NC(=O)CN1CCN(C(=O)N2CCOCC2)CC1: 1.73
- O=C(NCc1ccccc1)[C@@H]1CCCN1C(=O)[C@H]1CCCN1C(=O)c1cccc(Cl)c1: -0.83
- COc1ccc(-c2ccc3c(n2)CCCN3S(=O)(=O)c2ccc(C)cc2)cc1: -0.15
- S=c1ccc2ccccc2[nH]1: 1.87
- CCOC(=O)c1c(C)[nH]c(C(=O)COc2ccc3c(c2)OCO3)c1C: 3.13
- Cc1ccc(-n2c(SCC(=O)N3CCC(C(=O)O)CC3)nc3ccccc3c2=O)cc1C: -0.77
- Cc1ccc(C(=O)NCC(=O)OCc2nnc(-c3ccccc3)o2)cc1: 1.54
- COc1ccc(CCNC(=O)CSc2nnc3ccc(-c4ccncc4)nn23)cc1: -1.52
- O=C(COC(=O)c1cccc(Cl)c1)Nc1ccc2[nH]c(=O)[nH]c2c1: 0.75
- CN1CCCc2nc(-c3ccccc3)ccc21: -1.37
- CN1CCCCC(NC(=O)C(C)(C)C)C1=O (stereo not given): -1.72
- CCOC(=O)/C=C/c1ccccc1O: 0.44
- Cc1ccc(N)cc1CN1CCN(c2ncc(Cc3ccccc3)cn2)CC1: -3.21
- Nc1ccc(-c2nnc(-c3ccc(-c4ccccc4)cc3)o2)cc1: 9.48
- N#Cc1c(-c2cccs2)nc(SCC(=O)c2ccc(Br)cc2)[nH]c1=O: 23.5

* * *

# Tested on: HIV-1 gp120 / PG9 antibody interaction
# TEST_DESCRIPTION: binders of HIV-1 gp120 antibody PG9, primary screen, biochemical, TR-FRET (AID 624416)
# APPLIED_CONDITIONS: TR-FRET gp120-PG9 antibody binding; at 6.7 µM; active compounds read high
In all, about 360,000 compounds went through this assay and about 1,500 (0.42%) were called active. Only a selection was taken, and actives are over-represented in it overall.
Reported inhibition by item:
PROPERTY_LABEL: inhibition

- O=C(CCC1CCCC1)N=C1SC2CS(=O)(=O)CC2N1Cc1ccccc1 (centres undefined): 0.63% (inactive)
- CN1CCc2nc(SC(C(=O)O)c3ccccc3)c(C#N)c(-c3cccs3)c2C1 (centres undefined): 1.9% (inactive)
- O=C(O)Cn1cnc2c(NCc3ccccc3)ncnc21: 1.02% (inactive)
- COC(=O)c1c(-c2ccc(OC)cc2)c2c(c3c4ccccc4n(S(=O)(=O)c4ccc(C)cc4)c13)C(=O)N(C)C2: 0.17% (inactive)

* * *

# Tested on: HIV-1 gp120 / PG9 antibody interaction
# TEST_DESCRIPTION: binders of HIV-1 gp120 antibody PG9, primary screen, biochemical, TR-FRET (AID 624416)
# APPLIED_CONDITIONS: TR-FRET gp120-PG9 antibody binding; at 6.7 µM; active compounds read high
Among all 360,000 compounds or so, about 1,500 (0.42%) were called active. For the sample, actives were picked, then their nearest neighbours and some compounds at random.
// reported inhibition per item
PROPERTY_LABEL: inhibition (%)

• C[C@H](O)[C@@H]1C(=O)N2CCc3c([nH]c4c(-c5ccc6c(c5)OCO6)cccc34)[C@@H]2C[C@@H]1N(C)C(=O)c1ccco1 = -1.4
• COCCCNc1nc2c(-c3cccc(C(F)(F)F)c3)nnn2c2ccccc12 = 0.39
• Cc1nn(C)cc1C(=O)Nc1ccccc1Br = -1.45
• Cc1[nH]c2ccccc2c1CC(=O)Nc1ccc(Nc2cccnc2)c(-c2cccc(Cl)c2)c1 = 0.12
• C=CC1=CCN(S(=O)(=O)C(C)(C)C)[C@@H]1CCO = 0.76
• CCOC(=O)c1cccc(NC(=O)CCn2nnc3ccccc32)c1 = 1.35
• C[C@H]1CN([C@@H](C)CO)C(=O)CCCn2nncc2CO[C@@H]1CN(C)C(=O)Nc1ccc(N2CCN(C)CC2)cc1 = -0.47
• COC(=O)c1ccc(CN2C(=O)[C@]3(OCCC=C[C@H]3C)c3c(Br)cccc32)cc1 = 0.64
• CC1Cc2cc(/C(O)=C3\C(=O)C(=O)N(CCN4CCOCC4)C3c3ccccc3F)ccc2O1 (stereo not given) = 13.2
• CC[C@H](NC(=O)[C@H](Cc1ccccc1)NC(=O)[C@H]1O[C@@H](n2cnc3c(=O)[nH]c(N)nc32)[C@H](O)[C@@H]1O)c1ccccc1 = 1.17
• O=C(O)c1ccccc1-c1ccccc1C(=O)Nc1nccs1 = 1.5
• C=CCOc1cccc(C2C(C(=O)c3ccc(C)o3)=C(O)C(=O)N2c2nnc(C)s2)c1 (stereo not given) = 2.85
• Nc1ccn([C@@H]2O[C@H](C(=O)N[C@H]3CCCCNC3=O)[C@@H](O)[C@H]2O)c(=O)n1 = -0.25
• Cc1nn(C)cc1CNC(=O)Nc1ccc(Cl)cc1 = -1.07
• C=CCOc1cccc(C2C(C(=O)c3ccc(C)o3)=C(O)C(=O)N2CCN2CCOCC2)c1 (stereo not given) = 2.96
• COC(=O)C1=C(C)N(Cc2ccc(C(F)(F)F)cc2)C(=NCc2ccccc2)NC1c1ccccc1C(F)(F)F (stereo not given) = -0.97
• CCOC(=O)Cn1c2c(n(-c3ccc(F)cc3)c1=O)C=C(c1ccccc1)[C@@H](C)C(C(=O)N(C)C1CCCCC1)=C2 = 1.82
• COc1ccccc1C(=O)N1O[C@]23C=C[C@]14C[C@@H](O)CC[C@]4(C)C2CC[C@]1(C)[C@@H]([C@H](C)/C=C/[C@H](C)C(C)C)CC[C@H]13 (stereo not given in full) = 0.64
• CCn1nnc2cc(C(=O)Nc3ccc(C(=O)OC(C)C)cc3)ccc21 = 20.3
• COC(=O)[C@]12C[C@H](CC(=O)NCc3ccccc3)C(=O)N(CCC3=CCCCC3)C1=C[C@H](C(C)(C)C)O[C@@H]2C = -0.45
• Nc1nc2c(ncn2[C@@H]2O[C@H](C(=O)N[C@@H](Cc3ccccc3)C(=O)NCc3ccccc3)[C@@H](O)[C@H]2O)c(=O)[nH]1 = 0.08
• O=C(NCc1ccc2c(c1)OCO2)c1c(O)nc2sccn2c1=O = -1.43
• CC1CCCN(c2cccc3c2S(=O)(=O)N(Cc2ccc(F)cc2)[C@@H](C)[C@H](c2ccccc2)O3)C1 (stereo not given in full) = 0.43
• Cc1cc(N2CCN(C(=O)OC(C)(C)C)C[C@H]2C)ccc1N1CCN(Cc2ccccc2)[C@H](C)C1 = -1.9
• O=C(N[C@H](C(=O)N1CCC[C@H]1C(=O)NCCc1ccccc1Cl)c1ccccc1)c1ccccc1 = 1.57
• CCCN1C(=O)c2[nH]nc(-c3ccccc3)c2C1c1ccccc1 (stereo not given) = -1.03
• CC(C)C[C@H](NC(=O)CC1CCCC1)C(=O)N1CCC[C@H]1C(=O)NCc1ccccc1 = -0.84
• O=C(Nc1ccccc1F)c1ccccc1-c1ccccc1 = -1.32
• COc1ccc(-c2c(C)nn3c(N4CCC(C(=O)N5CCCCC5)CC4)cc(C)nc23)cc1OC = 30.3
• CCOC(=O)c1ccc(NC(=O)Cn2cnc3cc(C)c(C)cc32)cc1 = -1.34
